Hi there, I'd appreciate the recorded zone of inhibition at 1000 µg/mL for every entry that follows.
System: Aspergillus niger
Experiment: Antifungal activity against Aspergillus niger assessed as diameter of inhibition zone at 1 mg/ml incubated for 72 to 91 hrs by agar disk diffusion method
Assay type: functional
Details: time 72-91 hrs, read-out: DIZ
A number alone suffices; assume mm.

// query Name the recorded zone of inhibition at 1000 µg/mL for COC(=O)C1=C(N)Oc2[nH]c(=S)[nH]c(=O)c2C1c1ccc(OC)c(OC)c1 (configuration not stated) .
// result 0

// query Name the recorded zone of inhibition at 1000 µg/mL for COC(=O)C1=C(N)Oc2[nH]c(=S)[nH]c(=O)c2C1c1ccccc1 (configuration not stated) .
// result 12

// query Name the recorded zone of inhibition at 1000 µg/mL for COC(=O)C1=C(N)Oc2[nH]c(=S)[nH]c(=O)c2C1c1ccc(C)cc1 (configuration not stated) .
// result 23

// query Name the recorded zone of inhibition at 1000 µg/mL for COC(=O)C1=C(N)Oc2[nH]c(=S)[nH]c(=O)c2C1c1cccc(Cl)c1 (configuration not stated) .
// result 12

// query Name the recorded zone of inhibition at 1000 µg/mL for COC(=O)C1=C(N)Oc2[nH]c(=S)[nH]c(=O)c2C1c1ccc(O)cc1 (configuration not stated) .
// result 23

// query Name the recorded zone of inhibition at 1000 µg/mL for COC(=O)C1=C(N)Oc2[nH]c(=S)[nH]c(=O)c2C1c1ccc([N+](=O)[O-])cc1 (configuration not stated) .
// result 23

// query Name the recorded zone of inhibition at 1000 µg/mL for COC(=O)C1=C(N)Oc2[nH]c(=S)[nH]c(=O)c2C1c1ccccc1Cl (configuration not stated) .
// result 0

====

Test system: Bacillus cereus
Assay: Antibacterial activity against Bacillus cereus ATCC-14579 assessed as diameter of inhibition zone incubated for 24 hrs by disc diffusion method
Type: functional
measure name: diameter of the inhibition zone (DIZ) (mm)
A number alone suffices; assume mm.

// query Name the recorded diameter of the inhibition zone (DIZ) for O=c1oc2ccccc2c2c1C(c1ccc(Cl)cc1)c1c(ncn3nc(CCl)nc13)O2 (stereo not given) .
// result 19

// query Name the recorded diameter of the inhibition zone (DIZ) for `CC1(C)S[C@@H]2[C@H](NC(=O)[C@H](N)c3ccccc3)C(=O)N2[C@H]1C(=O)O` .
// result 25

// query Name the recorded diameter of the inhibition zone (DIZ) for CCOC(=O)n1c(=O)nc2c3c(ncn21)Oc1c(c(=O)oc2ccccc12)C3c1ccc(Cl)cc1 (stereo not given) .
// result 19

// query Name the recorded diameter of the inhibition zone (DIZ) for N#CCc1nc2c3c(ncn2n1)Oc1c(c(=O)oc2ccccc12)C3c1ccc(Cl)cc1 (stereo not given) .
// result 19

// query Name the recorded diameter of the inhibition zone (DIZ) for CCOC(=O)c1nc2c3c(ncn2n1)Oc1c(c(=O)oc2ccccc12)C3c1ccc(Cl)cc1 (stereo not given) .
// result 19

====

Assay: Selectivity index, ratio of CC50 for cytotoxicity against human MT4 cells to EC50 for antiviral activity against HIV1 IIIB infected in human MT4 cells
Type: toxicity, cell-based
Details: read-out: Selectivity Index
measure name: selectivity ratio

// query Name the recorded selectivity ratio for N=c1c2c(ncn1N)Oc1c(c(=O)oc3ccccc13)C2c1cccc2ccccc12 (configuration not stated) .
// result < 1

// query Name the recorded selectivity ratio for Cc1nc2c(c(=O)[nH]1)C(c1cccc3ccccc13)c1c(c3ccccc3oc1=O)O2 (configuration not stated) .
// result < 1

====

Biological target: Urease (Canavalia ensiformis)
Sequence (P07374 whole entry): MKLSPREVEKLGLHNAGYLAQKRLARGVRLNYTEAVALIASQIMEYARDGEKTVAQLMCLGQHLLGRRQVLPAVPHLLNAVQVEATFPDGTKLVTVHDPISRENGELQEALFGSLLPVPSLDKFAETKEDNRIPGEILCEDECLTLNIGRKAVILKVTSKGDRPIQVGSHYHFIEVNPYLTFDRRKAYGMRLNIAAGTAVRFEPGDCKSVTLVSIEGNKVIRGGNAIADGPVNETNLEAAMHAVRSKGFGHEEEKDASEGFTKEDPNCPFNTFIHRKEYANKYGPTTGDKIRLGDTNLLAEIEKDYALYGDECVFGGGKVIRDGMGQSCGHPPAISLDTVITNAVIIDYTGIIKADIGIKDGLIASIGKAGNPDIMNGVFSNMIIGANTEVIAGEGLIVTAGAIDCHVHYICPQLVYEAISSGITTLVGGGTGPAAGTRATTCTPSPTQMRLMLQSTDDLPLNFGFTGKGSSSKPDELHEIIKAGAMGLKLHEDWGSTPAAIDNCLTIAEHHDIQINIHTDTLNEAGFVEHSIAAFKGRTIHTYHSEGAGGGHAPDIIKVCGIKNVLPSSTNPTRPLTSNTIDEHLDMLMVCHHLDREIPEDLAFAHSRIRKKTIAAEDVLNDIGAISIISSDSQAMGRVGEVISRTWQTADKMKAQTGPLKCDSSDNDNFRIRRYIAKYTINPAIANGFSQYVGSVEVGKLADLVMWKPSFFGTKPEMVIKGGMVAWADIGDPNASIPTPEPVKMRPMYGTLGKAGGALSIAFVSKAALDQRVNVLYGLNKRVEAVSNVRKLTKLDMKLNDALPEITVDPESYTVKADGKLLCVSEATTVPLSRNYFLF
For each record, check the reported IC50: if it is below 50 µM write Fulfilled, else write Not fulfilled.

// query Is IC50 of CN1C(=O)C2C(c3ccccc3)C(C#N)=C(N)OC2N(C)C1=O (stereo not drawn) strictly below 50 µM?
// result Not fulfilled

// query Is IC50 of N#CC1=C(N)Oc2[nH]c(=O)[nH]c(=O)c2C1c1cccc([N+](=O)[O-])c1 (stereo not drawn) strictly below 50 µM?
// result Not fulfilled

// query Is IC50 of N#CC1=C(N)Oc2[nH]c(=O)[nH]c(=O)c2C1c1ccc(Cl)cc1Cl (stereo not drawn) strictly below 50 µM?
// result Fulfilled

// query Is IC50 of Cc1ccc(C2C(C#N)=C(N)Oc3[nH]c(=O)[nH]c(=O)c32)cc1 (stereo not drawn) strictly below 50 µM?
// result Not fulfilled

// query Is IC50 of Cn1c2c(c(=O)n(C)c1=O)C(c1ccc(O)cc1)C(C#N)=C(N)O2 (stereo not drawn) strictly below 50 µM?
// result Not fulfilled

// query Is IC50 of COc1ccc(C2C(C#N)=C(N)Oc3[nH]c(=O)[nH]c(=O)c32)cc1 (stereo not drawn) strictly below 50 µM?
// result Not fulfilled

====

Molecular target: DNA topoisomerase II (Homo sapiens, UniProt P11388+Q02880)
Assay: Inhibition of DNA topoisomerase 2 (unknown origin)
Type: protein assay
measure name: IC50
Respond with a number, then the unit of measure.

// query Name the recorded IC50 for COc1cccc2c1C(=O)c1c(O)c3c(c(O)c1C2=O)C[C@@](O)(C(=O)CO)C[C@@H]3O[C@H]1C[C@H](N)[C@H](O)[C@H](C)O1 [DOXORUBICIN] .
// result 0.94 µM

// query Name the recorded IC50 for COc1ccc(C2c3c([nH]c(=O)[nH]c3=O)Oc3ncn(-c4ccccc4O)c(=N)c32)cc1 (centres undefined) .
// result 0.776 µM

// query Name the recorded IC50 for CCC(C)n1cnc2c(c1=N)C(c1ccc(OC)cc1)c1c([nH]c(=O)[nH]c1=O)O2 (centres undefined) .
// result 0.752 µM

// query Name the recorded IC50 for COc1ccc(C2c3c([nH]c(=O)[nH]c3=O)Oc3ncn(C(=S)Nc4ccccc4)c(=N)c32)cc1 (centres undefined) .
// result 0.791 µM

====

Biological target: Alpha-glucosidase (Saccharomyces cerevisiae S288c, UniProt P53341+P38158+P07265)
Experiment: Inhibition of Saccharomyces cerevisiae alpha-glucosidase assessed as decrease in release of p-nitrophenol using pNPG as substrate incubated for 10 mins by spectroscopic analysis
Format: protein assay
Hi there, I'd appreciate the recorded IC50 for every entry that follows.
A number alone suffices; assume µM.

// query Name the recorded IC50 for `COc1cc(/C=C/C(=O)CC(=O)/C=C/c2ccc(O)c(OC)c2)ccc1O` .
// result 44.8

// query Name the recorded IC50 for COc1cc(/C=C/C(=O)C2=C(/C=C/c3ccc(O)c(OC)c3)Oc3[nH]c(=O)[nH]c(=O)c3C2c2c(Cl)cccc2Cl)ccc1O (stereo not given) .
// result 27.6

// query Name the recorded IC50 for COc1cc(/C=C/C(=O)C2=C(/C=C/c3ccc(O)c(OC)c3)Oc3[nH]c(=O)[nH]c(=O)c3C2c2ccc([N+](=O)[O-])cc2)ccc1O (stereo not given) .
// result 12.41

// query Name the recorded IC50 for COc1cc(/C=C/C(=O)C2=C(/C=C/c3ccc(O)c(OC)c3)Oc3[nH]c(=O)[nH]c(=O)c3C2c2cccc([N+](=O)[O-])c2)ccc1O (stereo not given) .
// result 9.7

// query Name the recorded IC50 for COc1cc(/C=C/C(=O)C2=C(/C=C/c3ccc(O)c(OC)c3)Oc3[nH]c(=O)[nH]c(=O)c3C2c2c[nH]c3ccccc23)ccc1O (stereo not given) .
// result 35.3

====

Hi there, I'd appreciate the recorded CC50 for every entry that follows.
Assay: Cytotoxicity against human MT4 cells assessed as reduction in cell viability by MTT assay
Assay type: toxicity, cell-based
A number alone suffices; assume µg/mL.

// query Name the recorded CC50 for Cc1nc2c(c(=O)[nH]1)C(c1cccc3ccccc13)c1c(c3ccccc3oc1=O)O2 (configuration not stated) .
// result 3.63

// query Name the recorded CC50 for N=c1c2c(ncn1N)Oc1c(c(=O)oc3ccccc13)C2c1cccc2ccccc12 (configuration not stated) .
// result 4.84

====

Tested on: HeLa
Assay: Anticancer activity against human HeLa cells assessed as reduction in cell viability incubated for 48 hrs by MTT assay
Assay type: functional, cell-based
measure name: IC50 (µM)
A number alone suffices; assume µM.

// query Name the recorded IC50 for O=C1Nc2c(c(=O)oc3ccccc23)C(c2ccccc2O)N1 (stereo not drawn) .
// result 38

// query Name the recorded IC50 for O=C1Nc2c(c(=O)oc3ccccc23)C(c2ccc(Cl)cc2)N1 (stereo not drawn) .
// result 46

// query Name the recorded IC50 for O=C1Nc2c(c(=O)oc3ccccc23)C(c2ccc(Br)cc2)N1 (stereo not drawn) .
// result 59

// query Name the recorded IC50 for O=C1Nc2c(c(=O)oc3ccccc23)C(c2ccc(O)cc2)N1 (stereo not drawn) .
// result 38

// query Name the recorded IC50 for O=C1Nc2c(c(=O)oc3ccccc23)C(c2cccc(O)c2)N1 (stereo not drawn) .
// result 90

// query Name the recorded IC50 for O=C1Nc2c(c(=O)oc3ccccc23)C(c2ccccc2)N1 (stereo not drawn) .
// result 46

// query Name the recorded IC50 for COc1ccc(C2NC(=O)Nc3c2c(=O)oc2ccccc32)cc1OC (stereo not drawn) .
// result 38

// data source = ChEMBL document CHEMBL5241112
